# tested-target: Casein kinase I isoform delta (Homo sapiens) (UniProt P48730)
# Sequence (P48730 whole entry, looked up, canonical isoform): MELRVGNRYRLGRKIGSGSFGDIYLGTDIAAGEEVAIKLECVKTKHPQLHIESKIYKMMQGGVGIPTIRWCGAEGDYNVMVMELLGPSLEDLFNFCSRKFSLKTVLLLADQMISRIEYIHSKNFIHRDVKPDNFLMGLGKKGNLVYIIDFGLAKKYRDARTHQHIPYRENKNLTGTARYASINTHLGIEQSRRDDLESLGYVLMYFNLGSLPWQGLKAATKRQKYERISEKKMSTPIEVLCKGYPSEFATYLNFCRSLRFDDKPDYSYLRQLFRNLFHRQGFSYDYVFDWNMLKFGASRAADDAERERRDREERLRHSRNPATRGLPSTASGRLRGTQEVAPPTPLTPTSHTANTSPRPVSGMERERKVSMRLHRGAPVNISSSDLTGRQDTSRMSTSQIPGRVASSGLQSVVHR
# protocol-conditions: at 1 µM
# Description: Millipore: Percentage of residual kinase activity of CSNK1D at 1uM relative to control. Control inhibitor: Jnk Inhibitor II at 100.0uM. Buffer: 8 mM MOPS pH 7.0, 0.2 mM EDTA
Kindly supply the reported residual activity values for the records listed here.
One number for each entry, in %.

Consider the following illustrative entries.
Nc1cccc(-c2cc3c(Oc4cccc(O)c4)ncnc3[nH]2)c1 ... 86
NC(=O)c1ccc2[nH]c(-c3ccc(Oc4ccc(Cl)cc4)cc3)nc2c1 ... 83
Oc1ccc(-c2nc(-c3ccc(F)cc3)c(-c3ccncc3)[nH]2)cc1 ... 7
CC(C)n1cnc2/c(=N/c3cccc(Cl)c3)nc(NCCO)[nH]c21 ... 37
CCOc1cc2ncnc(Nc3cccc(Br)c3)c2cc1OCC ... 84
N#Cc1cnc2cnc(NCc3cccnc3)cc2c1Nc1ccc(F)c(Cl)c1 ... 79
O=C1NC(=O)c2cc(Nc3ccc(F)cc3)c(Nc3ccc(F)cc3)cc21 ... 84
O=C1NC(=O)/C(=C/c2ccc3c(c2)OC(F)(F)O3)S1 ... 80
O=Nc1c(-c2c(O)[nH]c3ccccc23)[nH]c2ccccc12 ... 14
CCN(CC)CCCCN1c2ccccc2Oc2ccc(Cl)cc21 ... 95

Data request: Which measured residual activity value corresponds to `COc1cc2ncc(-c3ccccc3)nc2cc1OC` ?
Data returned: 72

----------
Would you kindly list residual activity for each of these compounds?
# tested-target: BDNF/NT-3 growth factors receptor (Homo sapiens) (UniProt Q16620)
# Sequence (Q16620 32-822 limits assumed): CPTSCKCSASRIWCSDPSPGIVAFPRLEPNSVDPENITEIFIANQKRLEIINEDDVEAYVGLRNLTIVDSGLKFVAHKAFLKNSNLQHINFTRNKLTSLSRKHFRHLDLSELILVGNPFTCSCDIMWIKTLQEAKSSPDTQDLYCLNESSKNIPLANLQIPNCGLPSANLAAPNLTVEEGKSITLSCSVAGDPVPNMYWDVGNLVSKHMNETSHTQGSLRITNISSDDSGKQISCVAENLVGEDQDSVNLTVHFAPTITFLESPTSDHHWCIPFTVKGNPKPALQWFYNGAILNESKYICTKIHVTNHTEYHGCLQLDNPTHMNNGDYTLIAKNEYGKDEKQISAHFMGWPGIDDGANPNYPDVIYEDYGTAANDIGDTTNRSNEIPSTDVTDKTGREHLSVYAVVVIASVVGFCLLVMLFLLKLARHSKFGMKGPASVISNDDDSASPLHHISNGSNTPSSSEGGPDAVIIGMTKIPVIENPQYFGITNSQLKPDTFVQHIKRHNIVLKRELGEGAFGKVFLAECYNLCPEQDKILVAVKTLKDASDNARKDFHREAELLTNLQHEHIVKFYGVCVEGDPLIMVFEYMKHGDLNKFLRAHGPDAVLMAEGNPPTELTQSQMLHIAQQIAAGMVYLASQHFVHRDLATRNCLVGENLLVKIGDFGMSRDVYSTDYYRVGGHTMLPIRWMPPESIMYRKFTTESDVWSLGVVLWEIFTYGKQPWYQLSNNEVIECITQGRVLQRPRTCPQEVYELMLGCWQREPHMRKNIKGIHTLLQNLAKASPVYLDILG
# protocol-conditions: at 10 µM
Numbers only, in %.

Please review the following examples before continuing.
COc1cc2ncnc(N3CCN(C(=O)Nc4ccc(Oc5ccccc5)cc4)CC3)c2cc1OC ... 44
Cc1nc2cc3nc(-c4cccs4)cnc3cc2n1C ... 45

Give residual activity for each of the items listed below.
1. CCC(=O)Nc1ccc2ncnc(Nc3cccc(Br)c3)c2c1
2. Nc1n[nH]c2nnc(-c3c(-c4ccccc4)nn4ccccc34)cc12
3. CCN(CC)C(=O)c1ccc(Nc2nc(OCC3CCCCC3)c3nc[nH]c3n2)cc1
4. Cn1cc(/C=C2\C(=O)Nc3ccc(S(N)(=O)=O)cc32)c2ccccc21

Data returned:
1. 119
2. 52
3. 2
4. -12

Look at each compound and report its residual activity.
1. c1ccc(-c2n[nH]c3c2oc2ccccc23)cc1
2. O=C1Nc2ccc(Br)cc2/C1=C\c1cc2c([nH]1)CCCC2
3. N#CC(C#N)=C(N)/C(C#N)=C/c1ccc(O)cc1
4. Oc1c2ccccc2c2c3c(cccc13)N=N2
5. COc1ccc(OC)c2c(=S)c3ccccc3[nH]c12
6. Ic1cccc(CSc2nnc(-c3ccncc3)o2)c1
7. COc1cc2ncnc(Nc3ccc(NC(=O)c4ccccc4)cc3)c2cc1OC
8. O=C1NC(=O)c2c1c1c3ccccc3[nH]c1c1[nH]c3cc(Br)ccc3c21

Data returned:
-3
44
116
5
92
28
21
42

Please state residual activity for every compound in the list that follows.
1. Oc1n[nH]c2nnc(-c3c(-c4ccccc4)nn4ccccc34)cc12
2. O=Nc1c(-c2c(O)[nH]c3ccccc23)[nH]c2ccccc12

Data returned:
84
0

----------
# tested-target: CDK9/cyclin T1 (Homo sapiens) (UniProt O60563+P50750)
# protocol-conditions: at 10 µM
// label = 1.0 if residual activity is not less than 90%, otherwise 0.0

The following compounds have reported results that may help.
N#CC(C#N)=C(N)/C(C#N)=C/c1ccc(O)cc1 ... 0.0
CN(C)c1ccc(/C=C2\C(=O)Nc3ccccc32)cc1 ... 1.0
Cn1cc(/C=C2\C(=O)Nc3ccc(S(N)(=O)=O)cc32)c2ccccc21 ... 0.0

Data request: Could you tell me if the measured residual activity of `Cc1cccc(-c2[nH]c(C(C)(C)C)nc2-c2ccc3c(c2)OCO3)n1` reaches 90% or more?
Data returned: 1.0
